System: CCRF-CEM
Procedure Summary: NCI tumour cell line growth inhibition, 48 h
Active and inactive are the calls of the source. Cut-off read from the data, not from the text of the source: active = GI50 up to about 1.1 µM and inactive = higher.

Compound: COCC(OC)C(CC=C(C#N)C#N)OC (stereo not given)
GI50: > 100 µM (inactive)

Compound: CCCCCN(CCCCC)C(=O)[C@@H](CCC(=O)OCc1ccccc1)NC(=O)c1cc2ccccc2[nH]1
GI50: > 100 µM (inactive)

Compound: Cc1ccc(S(=O)(=O)NC(=O)NC2=NC(C)(C)N(c3ccc(Cl)c(Cl)c3)C(N)=N2)cc1
GI50: 4.74 µM (inactive)

Compound: CCC(=O)c1c(NOC2OC(COC(C)=O)C(OC(C)=O)C(OC(C)=O)C2OC(C)=O)nc(OC)n(C)c1=O (stereo not given)
GI50: > 100 µM (inactive)

Compound: COc1ccc2c(c1)CCc1c(-c3n[nH]c4c3CCc3cc(OC)ccc3-4)n[nH]c1-2
GI50: 26.1 µM (inactive)

Compound: ClCCN1CCC2(CC1)SSC1(CCN(CCCl)CC1)S2
GI50: 15 µM (inactive)

Compound: COc1ccc(/C(=N\NC(=N)N)C(c2ccc(OC)cc2)C2OC(=O)c3ccccc32)cc1 (stereo not given)
GI50: > 100 µM (inactive)

Compound: CCOC(=O)c1ccc(Nc2cnc3cc(C(F)(F)F)ccc3n2)cc1
GI50: > 100 µM (inactive)

Compound: CSc1ccc(/C=C2\N=C(c3ccccc3)N(c3nc4cc(C)c(C)cc4s3)C2=O)cc1
GI50: 9.35 µM (inactive)

Compound: N#Cc1ccc(/C=[N+](/C=c2ccc(=C=[N-])cc2)N(CCO)C2=NCCN2)cc1
GI50: > 100 µM (inactive)

====

Tested on: SK-OV-3
Procedure Summary: NCI tumour cell line growth inhibition, 48 h
Calls of active or inactive are those of the source. No stated cut-off is given here; in the data, active = GI50 up to about 1.1 µM and inactive = higher.
The following molecules are listed with their measured GI50 values.
Measure: GI50

Molecule: CC(=O)N(CCc1ccccc1)C(C#N)c1ccc(OCCCCCCCCCCOc2ccc(C(C#N)N(CCc3ccccc3)C(C)=O)cc2)cc1 (stereo not given)
Study System: SK-OV-3
Val: 22.9 µM (inactive)

Molecule: CCOC(=O)C[n+]1ccc2c([nH]c3cc(OC)ccc32)c1C
Study System: SK-OV-3
Val: > 100 µM (inactive)

Molecule: CC(C(=O)OCc1ccccc1)(c1ccco1)N1C(=O)OC(c2ccccc2)C1c1ccccc1 (stereo not given)
Study System: SK-OV-3
Val: > 100 µM (inactive)

Molecule: NC(=O)N/N=C(\Cc1cc(=O)oc2cc(O)ccc12)C(=O)Nc1ccccc1C(N)=O
Study System: SK-OV-3
Val: > 100 µM (inactive)

Molecule: CN(C)Cc1cc(/N=N/c2ccc(Cl)cc2)cc(CN(C)C)c1O
Study System: SK-OV-3
Val: 17.1 µM (inactive)

====

Test system: CCRF-CEM
Procedure Summary: NCI tumour cell line growth inhibition, 48 h
The source made the active and inactive calls. Cut-off read from the data, not from the text of the source: active = GI50 up to about 1.1 µM and inactive = higher.
Outcomes: active, inactive

Compound: Cc1cc(/N=N/c2ccccc2C)ccc1N
Answer Label: inactive
--
Compound: Cn1cc(NC(=O)c2cc(NC(=O)CCCCCC(=O)Nc3cc(C(=O)Nc4cc(C(=O)NCCC(=N)N)n(C)c4)n(C)c3)cn2C)cc1C(=O)NCCC(=N)N
Answer Label: inactive
--
Compound: CC1C(=NO)C(C)C(c2ccccc2)N(N=O)C1c1ccccc1 (stereo not given)
Answer Label: inactive
--
Compound: COc1ccc(/C=C\c2cc(OC)c(OC)c(OC)c2)cc1OC(=O)CCC(=O)O
Answer Label: active
--
Compound: COc1ccc2c(c1)CC[C@@H]1C2CC[C@]2(C)C(=O)N(CCN3CCCCC3)C(=O)CC12 (stereo not given in full)
Answer Label: inactive
--
Compound: COC1(OC)C(/C(N)=C\O)=NC(C)(C)N1O
Answer Label: inactive
--
Compound: Cc1cc(N(CCC#N)CCC#N)ccc1C(=N/NC(=O)c1cc(Cl)ccc1O)/N=N/c1cccc([N+](=O)[O-])c1
Answer Label: inactive
--
Compound: CC(=O)c1ccc(NC(=O)C(=O)C(C(=O)/C=C/c2ccccc2)C2OC(=O)c3ccccc32)cc1 (stereo not given)
Answer Label: inactive
--
Compound: Cn1nc(-c2ccccc2)c(C(=O)/C=C/c2ccc(Cl)cc2)c(N2CCCC2)c1=O
Answer Label: inactive
--
Compound: BrCC[P+](c1ccccc1)(c1ccccc1)c1ccccc1
Answer Label: inactive

====

System: RPMI-8226
Procedure Summary: NCI tumour cell line growth inhibition, 48 h
Calls of active or inactive are those of the source. No stated cut-off is given here; in the data, active = GI50 up to about 1.1 µM and inactive = higher.
Outcomes: y (active), n (inactive)

Molecule: CCOc1cc(C2CC(c3ccc(NS(=O)(=O)c4cc([N+](=O)[O-])ccc4C)cc3)=NN2C(=O)c2ccccc2)ccc1O (stereo not given)
Study System: RPMI-8226
Answer Label: n
--
Molecule: CCOC(=O)C[n+]1ccc2c([nH]c3cc(OC)ccc32)c1C
Study System: RPMI-8226
Answer Label: n
--
Molecule: C=CCOC(=O)C1C2OC3(C(C(=O)OC)=C2C(=O)OC)c2ccccc2CCC13 (stereo not given)
Study System: RPMI-8226
Answer Label: n
--
Molecule: Cn1c(=O)c(C(=O)NC(=O)NCCCCCOC(=O)CCCCCCCCCCC(=O)OCCCCCNC(=O)NC(=O)c2cn(Cc3ccccc3)c(=O)n(C)c2=O)cn(Cc2ccccc2)c1=O
Study System: RPMI-8226
Answer Label: n
--
Molecule: O=Cc1ccc2c(c1-c1c(C=O)ccc3c1OCO3)OCO2
Study System: RPMI-8226
Answer Label: n
--
Molecule: CC(C)(C)OC(=O)CCCCCNC(=O)CCCCCNC(=O)CCC(CN(CC(=O)OCc1ccccc1)CC(=O)OCc1ccccc1)N(CC(=O)OCc1ccccc1)CC(=O)OCc1ccccc1 (stereo not given)
Study System: RPMI-8226
Answer Label: n
--
Molecule: CCCCCCC(O)C/C=C/CCCCCC/C(C(=O)OC)=C(/O)C(=O)OCC (stereo not given)
Study System: RPMI-8226
Answer Label: n
--
Molecule: COC1(C)CNCC(C)(C)NC(=O)C(C)(OC)CNCC(C)(C)NC1=O (stereo not given)
Study System: RPMI-8226
Answer Label: n
--
Molecule: O=C(CC(=O)c1cccc2ccccc12)C(=O)NC1C2CC3CC(C2)CC1C3 (stereo not given)
Study System: RPMI-8226
Answer Label: n
--
Molecule: C[N+](C)([O-])CCCNc1c2ccccc2nc2cccc([N+](=O)[O-])c12
Study System: RPMI-8226
Answer Label: y
--
Molecule: COC1/C=C/C=C(/C)Cc2cc(O)c(Cl)c(c2)N(C)C(=O)CC(OC(=O)C(C)C)C2(C)OC2C(C)C2CC1(O)NC(=O)O2 (stereo not given)
Study System: RPMI-8226
Answer Label: y
--
Molecule: C1OC1CO[C@@H]1CO[C@H]2[C@@H]1OC[C@H]2OCC1CO1 (stereo not given in full)
Study System: RPMI-8226
Answer Label: n
--
Molecule: CNc1ncccc1Nc1cc(=O)n2c3cccnc3n(C)c2c1
Study System: RPMI-8226
Answer Label: n
--
Molecule: COc1cc2c(cc1O)C(c1cc(O)c(O)c(OC)c1)C(O)(C(=O)O)C(CO)C2O (stereo not given)
Study System: RPMI-8226
Answer Label: n
--
Molecule: CCC(/C=C/c1ccccc1)=N\Nc1ccc(Cl)c(Cl)c1
Study System: RPMI-8226
Answer Label: n
--
Molecule: COc1ccc(C2C3=C(COC3=O)OC(C)(C)Oc3cc4c(cc32)OCO4)cc1OC (stereo not given)
Study System: RPMI-8226
Answer Label: n
--
Molecule: Cc1[nH]c(C)c(CN(C)C)c1CN(C)C
Study System: RPMI-8226
Answer Label: n
--
Molecule: Cc1cccc(NC(=S)N/N=C(/c2ccccc2)c2ccccn2)c1
Study System: RPMI-8226
Answer Label: y
--
Molecule: CC(C)N/C(N)=N/C#N
Study System: RPMI-8226
Answer Label: n
--
Molecule: CC(=O)c1ccc(NC(=O)C(=O)C(C(=O)/C=C/c2ccccc2)C2OC(=O)c3ccccc32)cc1 (stereo not given)
Study System: RPMI-8226
Answer Label: n

====

System: SNB-19
Procedure Summary: NCI tumour cell line growth inhibition, 48 h
Activity calls are given as the source filed them. Cut-off read from the data, not from the text of the source: active = GI50 up to about 1.1 µM and inactive = higher.

Molecule: Cc1cc(N(CCC#N)CCC#N)ccc1C(=N/NC(=O)c1cc(Cl)ccc1O)/N=N/c1cccc([N+](=O)[O-])c1
GI50: 26.5 µM (inactive)
//
Molecule: COC(NC(=O)Nc1ccccc1C)(C(F)(F)F)C(F)(F)F
GI50: 44.4 µM (inactive)
//
Molecule: CC(C(=O)OCc1ccccc1)(c1ccco1)N1C(=O)OC(c2ccccc2)C1c1ccccc1 (stereo not given)
GI50: > 100 µM (inactive)
//
Molecule: Cn1c(=O)nc2n(-c3cccc(Br)c3)c3ccccc3nc-2c1=O
GI50: 1.38 µM (inactive)
//
Molecule: COC(=O)c1cccc2cccc(C(=O)Nc3ccc(C)cc3C)c12
GI50: > 100 µM (inactive)
